// provenance: the supplement of paper PMC10567573

B1: PRPH (parent)
chain: DEIEFLKKLHEEELRDLQVSVESQ

Variants of: B1
protocol_text: protein stability index of a GFP-peptide fusion (GPS, HEK-293T) (PSI 1-6); higher = more stable;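 note: lentivirally expressed fusions sorted by FACS into six bins by GFP to DsRed ratio, PSI derived from sequencing read proportions per bin multiplied by bin number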
condition_notes: c terminus: a fixed tail appended
Known protein stability index of a selection of variants

mutant_name: S23Q
protein stability index: 4.11
--
mutant_name: E12I
protein stability index: 4.05
--
mutant_name: E11Q
protein stability index: 4.08
--
mutant_name: Q18H
protein stability index: 4.69
--
mutant_name: L6M
protein stability index: 4.89
--
mutant_name: L14S
protein stability index: 5.18
--
mutant_name: S20E
protein stability index: 5.75
--
mutant_name: V21S
protein stability index: 4.75
--
mutant_name: D1K
protein stability index: 3.95
--
mutant_name: E13N
protein stability index: 4.97
--
mutant_name: L14Y
protein stability index: 4.6
--
mutant_name: R15Y
protein stability index: 4.58
--
mutant_name: S23I
protein stability index: 3.8
--
mutant_name: I3M
protein stability index: 4.96
--
mutant_name: E2K
protein stability index: 3.94
--
mutant_name: L17F
protein stability index: 4.69
--
mutant_name: V21P
protein stability index: 4.95
--
mutant_name: R15C
protein stability index: 4.53
--
mutant_name: E22F
protein stability index: 3.38
--
mutant_name: R15Q
protein stability index: 4.66
--
mutant_name: S20R
protein stability index: 5.1
--
mutant_name: S23M
protein stability index: 3.96
--
mutant_name: S20M
protein stability index: 4.81
--
mutant_name: D16E
protein stability index: 4.31
--
mutant_name: L17G
protein stability index: 5.21
--
mutant_name: L6G
protein stability index: 5.07
--
mutant_name: L9Y
protein stability index: 4.44
--
mutant_name: D16N
protein stability index: 4.2
--
mutant_name: S20N
protein stability index: 4.83
--
mutant_name: E13H
protein stability index: 4.45
--
mutant_name: S20D
protein stability index: 4.54
--
mutant_name: V19K
protein stability index: 5
--
mutant_name: D1E
protein stability index: 4.78
--
mutant_name: E11W
protein stability index: 3.21
--
mutant_name: R15D
protein stability index: 5.45
--
mutant_name: R15P
protein stability index: 4.98
--
mutant_name: I3F
protein stability index: 4.88
--
mutant_name: K8H
protein stability index: 4.63
--
mutant_name: R15F
protein stability index: 4.15
--
mutant_name: H10Q
protein stability index: 5.03
--
mutant_name: Q24G
protein stability index: 4.48
--
mutant_name: S20F
protein stability index: 3.97
--
mutant_name: V21M
protein stability index: 4.45
--
mutant_name: S23H
protein stability index: 4.94
--
mutant_name: S20W
protein stability index: 4.45
--
mutant_name: D16K
protein stability index: 4.94
--
mutant_name: E4F
protein stability index: 3.96
--
mutant_name: L9I
protein stability index: 4.88
--
mutant_name: R15A
protein stability index: 5.18
--
mutant_name: K8F
protein stability index: 3.94
--
mutant_name: D1I
protein stability index: 3.46
--
mutant_name: E22V
protein stability index: 4.18
--
mutant_name: L6R
protein stability index: 4.91
--
mutant_name: I3N
protein stability index: 5.46
--
mutant_name: S23A
protein stability index: 4.04
--
mutant_name: H10C
protein stability index: 4.56
--
mutant_name: K7Y
protein stability index: 2.42
--
mutant_name: E11F
protein stability index: 3.69
--
mutant_name: S23F
protein stability index: 4.36
--
mutant_name: I3H
protein stability index: 5.24
--
mutant_name: E22S
protein stability index: 4.74
--
mutant_name: D16M
protein stability index: 3.9
--
mutant_name: L6N
protein stability index: 5.61
--
mutant_name: E11G
protein stability index: 4.95
--
mutant_name: L9K
protein stability index: 5.49
--
mutant_name: E12D
protein stability index: 4.41
--
mutant_name: V19A
protein stability index: 5.23
--
mutant_name: L9H
protein stability index: 5.29
--
mutant_name: R15T
protein stability index: 4.51
--
mutant_name: I3L
protein stability index: 4.84
--
mutant_name: S23R
protein stability index: 4.62
--
mutant_name: Q24E
protein stability index: 4.57
--
mutant_name: L17R
protein stability index: 5.06
--
mutant_name: D1R
protein stability index: 4.01
--
mutant_name: F5V
protein stability index: 4.95
--
mutant_name: H10I
protein stability index: 3.37
--
mutant_name: E22G
protein stability index: 4.3
--
mutant_name: L17P
protein stability index: 5.16
--
mutant_name: F5L
protein stability index: 5.18
--
mutant_name: K8V
protein stability index: 4.06
--
mutant_name: E22H
protein stability index: 4.5
